Protocol text: Solvent solubility of amorphous Compound 1 (solvent aliquot addition)
Format: physicochemical
Settings: tetrahydrofuran, organic solvent or mixture, thermodynamic from solid

[
  {
    "Smiles representation": "COc1ccc(-c2cncc(N[C@@H](C)c3cccc(NC(=O)c4cncc(C)c4)c3)n2)cc1OC",
    "solubility": "≥ 200 mg/mL"
  }
]

###

Protocol text: Particle size distribution (PSD) of micronized / spray dried material
Format: physicochemical
Settings: wet polished (wet milled + spray dried) Compound 1 Form A; PSD set 2

[
  {
    "Compound": "COc1ccc(-c2cncc(N[C@@H](C)c3cccc(NC(=O)c4cncc(C)c4)c3)n2)cc1OC [Compound 1BIII]",
    "Dv50 (μm) 2": 3.1
  },
  {
    "Compound": "COc1ccc(-c2cncc(N[C@@H](C)c3cccc(NC(=O)c4cncc(C)c4)c3)n2)cc1OC [Compound 1BII]",
    "Dv50 (μm) 2": 3
  },
  {
    "Compound": "COc1ccc(-c2cncc(N[C@@H](C)c3cccc(NC(=O)c4cncc(C)c4)c3)n2)cc1OC [Compound 3B-2F]",
    "Dv50 (μm) 2": 3.7
  },
  {
    "Compound": "COc1ccc(-c2cncc(N[C@@H](C)c3cccc(NC(=O)c4cncc(C)c4)c3)n2)cc1OC [Compound 1BI]",
    "Dv50 (μm) 2": 3.3
  }
]

###

Protocol text: Solubility in ethanol/water mixtures
Settings: ethanol/water 30:70 (w:w), 22 °C, aqueous with cosolvent or surfactant or cyclodextrin, thermodynamic from solid

[
  {
    "Smiles representation": "CC(C)C[C@H](N)C(=O)O",
    "solubility at 4 h [µg/mL]": 7470
  }
]

###

Protocol text: Solvent solubility of amorphous Compound 1 (solvent aliquot addition)
Format: physicochemical
Settings: toluene, organic solvent or mixture, thermodynamic from solid

[
  {
    "Compound": "COc1ccc(-c2cncc(N[C@@H](C)c3cccc(NC(=O)c4cncc(C)c4)c3)n2)cc1OC [Amorphous Compound 1]",
    "solubility": "< 10000 µg/mL"
  }
]

###

Protocol text: Particle size distribution (PSD) of micronized / spray dried material
Format: physicochemical
Settings: wet polished (wet milled + spray dried) Compound 1 Form A; PSD set 2

[
  {
    "Molecule": "COc1ccc(-c2cncc(N[C@@H](C)c3cccc(NC(=O)c4cncc(C)c4)c3)n2)cc1OC [Compound 1BI]",
    "Dv90 (μm) 2": 6.7
  },
  {
    "Molecule": "COc1ccc(-c2cncc(N[C@@H](C)c3cccc(NC(=O)c4cncc(C)c4)c3)n2)cc1OC [Compound 1BII]",
    "Dv90 (μm) 2": 6.1
  },
  {
    "Molecule": "COc1ccc(-c2cncc(N[C@@H](C)c3cccc(NC(=O)c4cncc(C)c4)c3)n2)cc1OC [Compound 3B-2F]",
    "Dv90 (μm) 2": 14.7
  },
  {
    "Molecule": "COc1ccc(-c2cncc(N[C@@H](C)c3cccc(NC(=O)c4cncc(C)c4)c3)n2)cc1OC [Compound 1BIII]",
    "Dv90 (μm) 2": 6.6
  }
]

###

Protocol text: physchem
Settings: 22 °C, aqueous with cosolvent or surfactant or cyclodextrin, thermodynamic from solid
Observation type: solubility

[
  {
    "Compound": "COc1ccc(-c2cncc(N[C@@H](C)c3cccc(NC(=O)c4cncc(C)c4)c3)n2)cc1OC [Form A]",
    "Result": "2 to 350 mg/mL"
  }
]

###

Protocol text: Solvent solubility of amorphous Compound 1 (solvent aliquot addition)
Type: physicochemical
Settings: chloroform, organic solvent or mixture, thermodynamic from solid
Observation type: solubility

[
  {
    "Compound": "COc1ccc(-c2cncc(N[C@@H](C)c3cccc(NC(=O)c4cncc(C)c4)c3)n2)cc1OC [Amorphous Compound 1]",
    "Observation type": "solubility",
    "Result": "≥ 200 mg/mL"
  }
]

###

Protocol text: Solubility in ethanol/water mixtures
Settings: ethanol/water 50:50 (w:w), 22 °C, aqueous with cosolvent or surfactant or cyclodextrin, thermodynamic from solid
Observation type: solubility at 24 h (µg/mL)

[
  {
    "Molecule": "CC(C)C[C@H](N)C(=O)O [L-Leucine]",
    "Numeric readout": 5410
  }
]

###

Protocol text: Solubility in ethanol/water mixtures
Settings: ethanol/water 30:70 (w:w), 22 °C, aqueous with cosolvent or surfactant or cyclodextrin, thermodynamic from solid
Observation type: solubility at 24 h (µg/mL)

[
  {
    "Smiles representation": "CC(C)C[C@H](N)C(=O)O",
    "Numeric readout": 7260
  }
]

###

Protocol text: Solvent solubility of amorphous Compound 1 (solvent aliquot addition)
Format: physicochemical
Settings: heptane, organic solvent or mixture, thermodynamic from solid

[
  {
    "Smiles representation": "COc1ccc(-c2cncc(N[C@@H](C)c3cccc(NC(=O)c4cncc(C)c4)c3)n2)cc1OC",
    "solubility": "< 10000 µg/mL"
  }
]

###

Protocol text: Solvent solubility of amorphous Compound 1 (solvent aliquot addition)
Assay type: physicochemical
Settings: methanol, organic solvent or mixture, thermodynamic from solid

[
  {
    "Smiles representation": "COc1ccc(-c2cncc(N[C@@H](C)c3cccc(NC(=O)c4cncc(C)c4)c3)n2)cc1OC",
    "solubility": "≥ 200 mg/mL"
  }
]

###

Protocol text: Solubility in ethanol/water mixtures
Settings: ethanol/water 30:70 (w:w), 22 °C, aqueous with cosolvent or surfactant or cyclodextrin, thermodynamic from solid
Observation type: solubility (µg/mL)

[
  {
    "Compound": "CC(C)C[C@H](N)C(=O)O [L-Leucine]",
    "Observation type": "solubility",
    "Output unit": "µg/mL",
    "Numeric readout": 7360
  }
]

###

Protocol text: Solvent solubility of amorphous Compound 1 (solvent aliquot addition)
Type: physicochemical
Settings: acetonitrile, organic solvent or mixture, thermodynamic from solid

[
  {
    "Smiles representation": "COc1ccc(-c2cncc(N[C@@H](C)c3cccc(NC(=O)c4cncc(C)c4)c3)n2)cc1OC",
    "solubility": "≥ 200 mg/mL"
  }
]

###

Protocol text: Solubility in ethanol/water mixtures
Settings: ethanol/water 40:60 (w:w), 22 °C, aqueous with cosolvent or surfactant or cyclodextrin, thermodynamic from solid
Observation type: solubility at 4 h (µg/mL)

[
  {
    "Compound": "CC(C)C[C@H](N)C(=O)O [L-Leucine]",
    "Numeric readout": 6040
  }
]

###

Protocol text: Solvent solubility of amorphous Compound 1 (solvent aliquot addition)
Format: physicochemical
Settings: EtOAc/tBME (75:25% v/v), organic solvent or mixture, thermodynamic from solid

[
  {
    "Smiles representation": "COc1ccc(-c2cncc(N[C@@H](C)c3cccc(NC(=O)c4cncc(C)c4)c3)n2)cc1OC",
    "solubility": "≥ 200 mg/mL"
  }
]
